Entry source: ChEMBL document CHEMBL4513216

Quick reference: cytotoxicity at 10 µM of the listed items.
Experiment: Toxicity liver stage against HepG2, at 10uM
Format: cell-based
Design: test concentration 10 uM, cell line HepG2-A16-CD81EGFP
Conditions: human, HepG2-A16-CD81EGFP cells; read-out: INHIBITION
Supply the numeric figure in %, leaving out any unit text.

molecule: Cc1cnc(N2CCCC(O)C2)nc1-c1ccnn1C (stereo not drawn)
cytotoxicity at 10 µM / %: -0.271

Enquiry: State the recorded cytotoxicity at 10 µM for this entry: `CC(C)OCCS(=O)(=O)c1ccccc1C#N`
Return: 8.24

Enquiry: Repeat for the following molecule: CCC(C)NC(=O)NCCCn1nc2ccccn2c1=O (stereo not drawn)
Return: -8.08
